Catalogue of IC50 values
# system.name: wild-type un-phosphorylated FGFR4 (Homo sapiens, UniProt P22455)
# Sequence (P22455 22-802): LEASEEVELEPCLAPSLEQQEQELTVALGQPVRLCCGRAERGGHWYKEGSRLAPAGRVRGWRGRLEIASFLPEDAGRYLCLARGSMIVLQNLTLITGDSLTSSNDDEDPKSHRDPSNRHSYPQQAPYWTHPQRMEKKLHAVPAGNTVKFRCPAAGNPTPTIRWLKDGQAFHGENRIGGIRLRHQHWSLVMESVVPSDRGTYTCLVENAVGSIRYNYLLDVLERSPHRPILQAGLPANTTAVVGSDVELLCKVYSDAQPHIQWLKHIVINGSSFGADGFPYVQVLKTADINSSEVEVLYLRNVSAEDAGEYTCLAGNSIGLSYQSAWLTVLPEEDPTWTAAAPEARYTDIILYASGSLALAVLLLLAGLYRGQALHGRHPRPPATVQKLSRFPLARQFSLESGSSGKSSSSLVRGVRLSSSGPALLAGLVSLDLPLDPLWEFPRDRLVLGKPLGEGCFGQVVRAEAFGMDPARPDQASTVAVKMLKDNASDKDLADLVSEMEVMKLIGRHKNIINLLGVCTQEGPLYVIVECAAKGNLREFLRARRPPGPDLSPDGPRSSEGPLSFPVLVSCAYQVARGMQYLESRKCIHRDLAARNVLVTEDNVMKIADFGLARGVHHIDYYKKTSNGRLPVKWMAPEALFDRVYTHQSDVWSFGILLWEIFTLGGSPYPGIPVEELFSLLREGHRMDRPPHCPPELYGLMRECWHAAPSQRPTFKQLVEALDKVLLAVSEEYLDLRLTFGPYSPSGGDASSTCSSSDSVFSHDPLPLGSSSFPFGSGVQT
# assay.text: FGFR Enzymatic Assay (FRET peptide phosphorylation), FGFR4

Here's what some known entries look like.
molecule="COc1cc2[nH]nc(-c3cnn(C4CC(C#N)C4)c3)c2nc1-c1cccc2c1CCC2C#N (stereo not shown) [Example 111]" assay_readout=IC50 result="40 to 100 nM"
molecule="COc1cc2[nH]nc(-c3cnn(C)c3)c2nc1-c1cccc2c1CC(O)C2 (single isomer, unassigned) [Example 10]" assay_readout=IC50 result="> 100 nM"
molecule="COC(=O)N1CCC(n2cc(-c3n[nH]c4cc(OC)c(-c5cccc6c5CCC6)nc34)cn2)CC1 [Example 20]" assay_readout=IC50 result="> 100 nM"
molecule="CNc1cc2[nH]nc(-c3cnn(C)c3)c2nc1-c1cccc(C)c1C [Example 34]" assay_readout=IC50 result="> 100 nM"
molecule="COc1cc2[nH]nc(-c3ccc(N4CCOCC4)nc3)c2nc1-c1cccc2c1CCC2 [Example 58]" assay_readout=IC50 result="40 to 100 nM"
molecule="COc1cc2[nH]nc(-c3cnn([C@H]4CCN(C(=O)[C@@H]5CCCO5)C4)c3)c2nc1-c1cccc2c1CCC2C#N (stereo partly shown) [Example 169]" assay_readout=IC50 result="40 to 100 nM"

From here, focus on the item given below.
// assay wild-type un-phosphorylated FGFR4 (Homo sapiens, UniProt P22455), entry COc1cc2[nH]nc(-c3cnn([C@@H]4CCN(C(=O)[C@@H]5COCCN5C)C4)c3)c2nc1-c1cccc2c1CCC2 [Example 137] , IC50 value = 40 to 100 nM

* * *

# system.name: UniProtKB P22455
# assay.text: FGFR Enzymatic Assay (FRET peptide phosphorylation), FGFR4
pIC50: −log10 of the molar value.
assay.readout: pIC50

Here's what some known entries look like.
molecule="COc1cc2[nH]nc(-c3ccc(C4CN(C(=O)[C@H](C)O)C4)nc3)c2nc1-c1cccc2c1CCC2 [Example 177]" assay_readout=pIC50 result="7.00 to 7.40"
molecule="COc1cc2[nH]nc(-c3cnn(C4CN(C(=O)CN5CCC(O)CC5)C4)c3)c2nc1-c1cccc2c1CCC2 [Example 121]" assay_readout=pIC50 result="7.00 to 7.40"
molecule="COc1cc2[nH]nc(-c3ccc(N4CC(N(C)C(=O)CO)C4)nc3)c2nc1-c1cccc(C)c1C [Example 98]" assay_readout=pIC50 result="< 7.00"
molecule="COCCOC(=O)N1CC(n2cc(-c3n[nH]c4cc(OC)c(-c5cccc6c5CCC6)nc34)cn2)C1 [Example 152]" assay_readout=pIC50 result="7.00 to 7.40"
molecule="COc1cc2[nH]nc(-c3ccc(C4(C#N)CCN(CCO)CC4)nc3)c2nc1-c1cccc2c1CCC2 [Example 164]" assay_readout=pIC50 result="7.00 to 7.40"

Entry Cn1cc(-c2n[nH]c3cc(CO)c(-c4cccc5c4CCC5)nc23)cn1 [Example 36] ; pIC50 = < 7.00

Entry COc1cc2[nH]nc(-c3cnn(C4CN(C(=O)C[C@@H](C)O)C4)c3)c2nc1-c1cccc2c1CCC2 [Example 134] ; pIC50 = 7.00 to 7.40

* * *

# system.name: wild-type un-phosphorylated FGFR4 (Homo sapiens, UniProt P22455)
# assay.text: FGFR Enzymatic Assay (FRET peptide phosphorylation), FGFR4
pIC50: −log10 of the molar value.
Catalogue of pIC50 values

Here's what some known entries look like.
compound=COc1cc2[nH]nc(-c3cnn(CCN4CCOCC4)c3)c2nc1-c1cccc2c1CCC2 result="< 7.00"
compound=COc1cc2[nH]nc(-c3cnn(C4CN(C(=O)C5CC5)C4)c3)c2nc1-c1cccc2c1CCC2 result="7.00 to 7.40"
compound=CCN1CC(n2cc(-c3n[nH]c4cc(OC)c(-c5cccc6c5CCC6)nc34)cn2)C1 result="< 7.00"
compound="COC(=O)N1CCC(c2ccc(-c3n[nH]c4cc(OC)c(-c5cccc6c5CCC6C#N)nc34)cn2)CC1 (stereo not shown)" result="7.00 to 7.40"

Entry COc1cc2[nH]nc(-c3ccc(CN4CCN(C)C(=O)[C@@H]4C)nc3)c2nc1-c1cccc2c1CCC2 ; pIC50 = 7.00 to 7.40

Entry COCC(=O)N1CC(n2cc(-c3n[nH]c4cc(OC)c(-c5cccc6c5CCC6)nc34)cn2)C1 ; pIC50 = 7.00 to 7.40

Entry COc1cc2[nH]nc(-c3ccc(C4CN(C(=O)CO)C4)nc3)c2nc1-c1cccc2c1CCC2 ; pIC50 = 7.00 to 7.40

* * *

# system.name: wild-type un-phosphorylated FGFR4 (Homo sapiens, UniProt P22455)
# assay.text: FGFR Enzymatic Assay (FRET peptide phosphorylation), FGFR4
pIC50: −log10 of the molar value.
assay.readout: pIC50

Here's what some known entries look like.
smiles_structure=COc1cc2[nH]nc(-c3ccc(CN4CCn5ncnc5C4)nc3)c2nc1-c1cccc2c1CCC2 result="7.00 to 7.40"
smiles_structure=COc1cc2[nH]nc(-c3cnn(C4CN(C(=O)CN5CCN(C)CC5)C4)c3)c2nc1-c1cccc2c1CCC2 result="7.00 to 7.40"
smiles_structure=COc1cc2[nH]nc(-c3cnn([C@H]4CCN(C(=O)[C@H](C)O)C4)c3)c2nc1-c1cccc2c1CCC2 result="7.00 to 7.40"
smiles_structure=COc1cc2[nH]nc(-c3ccc(C4CCN(C(=O)CO)CC4)nc3)c2nc1-c1cccc(C)c1C result="< 7.00"
smiles_structure=COc1cc2[nH]nc(-c3cnn(C4CC4)c3)c2nc1-c1cccc2c1CCC2 result="7.00 to 7.40"

Entry COc1cc2[nH]nc(-c3cnn(C4CN(C(=O)N(C)C)C4)c3)c2nc1-c1cccc(C)c1F ; pIC50 = < 7.00

Entry COc1cc2[nH]nc(-c3ccc(N4CCN5C[C@@H](O)C[C@@H]5C4)nc3)c2nc1-c1cccc(C)c1C ; pIC50 = 7.00 to 7.40

* * *

Catalogue of IC50 values
# system.name: wild-type un-phosphorylated FGFR3 (Homo sapiens, UniProt P22607)
# Sequence (P22607 23-806): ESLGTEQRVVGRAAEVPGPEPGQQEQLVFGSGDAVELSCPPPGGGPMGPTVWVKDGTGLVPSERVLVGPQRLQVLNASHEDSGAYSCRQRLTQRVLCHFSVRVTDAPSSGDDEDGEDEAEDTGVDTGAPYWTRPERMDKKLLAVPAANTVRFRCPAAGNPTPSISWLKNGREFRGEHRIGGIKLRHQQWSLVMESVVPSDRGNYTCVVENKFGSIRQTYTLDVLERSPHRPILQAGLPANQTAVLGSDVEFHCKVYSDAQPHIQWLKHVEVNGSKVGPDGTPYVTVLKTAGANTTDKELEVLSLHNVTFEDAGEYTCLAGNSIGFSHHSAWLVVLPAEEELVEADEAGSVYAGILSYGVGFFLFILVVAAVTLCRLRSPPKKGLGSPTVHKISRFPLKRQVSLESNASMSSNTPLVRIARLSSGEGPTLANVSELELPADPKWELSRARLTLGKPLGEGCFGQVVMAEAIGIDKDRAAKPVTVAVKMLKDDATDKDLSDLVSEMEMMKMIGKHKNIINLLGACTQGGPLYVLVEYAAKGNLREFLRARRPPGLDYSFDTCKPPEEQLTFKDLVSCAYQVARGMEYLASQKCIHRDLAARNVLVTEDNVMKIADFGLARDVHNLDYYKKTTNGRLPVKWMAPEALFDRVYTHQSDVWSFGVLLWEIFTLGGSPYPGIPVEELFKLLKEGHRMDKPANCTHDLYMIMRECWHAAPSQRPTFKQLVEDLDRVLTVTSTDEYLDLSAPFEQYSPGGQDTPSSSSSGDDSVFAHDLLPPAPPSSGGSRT
# assay.text: FGFR Enzymatic Assay (FRET peptide phosphorylation), FGFR3

Here's what some known entries look like.
molecule="COc1cc2[nH]nc(-c3cnn(C4CN(C(=O)CN5CCN(C)CC5)C4)c3)c2nc1-c1cccc2c1CCC2 [Example 120]" system_name="wild-type un-phosphorylated FGFR3 (Homo sapiens, UniProt P22607)" result="< 6 nM"
molecule="COc1cc2[nH]nc(-c3ccc(OC4CCOCC4)nc3)c2nc1-c1cccc2c1CC(O)C2 (stereo not drawn) [Example 96]" system_name="wild-type un-phosphorylated FGFR3 (Homo sapiens, UniProt P22607)" result="< 6 nM"
molecule="COc1cc2[nH]nc(-c3ccc(C4CN(CCC#N)C4)nc3)c2nc1-c1cccc2c1CCC2 [Example 187]" system_name="wild-type un-phosphorylated FGFR3 (Homo sapiens, UniProt P22607)" result="< 6 nM"
molecule="COc1cc2[nH]nc(-c3cnn([C@H]4CCN(C(=O)[C@H]5COCCN5C)C4)c3)c2nc1-c1cccc2c1CCC2 [Example 138]" system_name="wild-type un-phosphorylated FGFR3 (Homo sapiens, UniProt P22607)" result="< 6 nM"
molecule="COc1cc2[nH]nc(-c3cnn(C4CN(C(=O)[C@@H]5CCCO5)C4)c3)c2nc1-c1cccc2c1CCC2 [Example 130]" system_name="wild-type un-phosphorylated FGFR3 (Homo sapiens, UniProt P22607)" result="< 6 nM"

Entry COC(=O)N1CC(n2cc(-c3n[nH]c4cc(OC)c(-c5cccc6c5CCC6)nc34)cn2)C1 [Example 21] ; IC50 = < 6 nM

Entry COc1cc2[nH]nc(-c3ccc(C4CCC(NC(=O)[C@H](C)O)C4)nc3)c2nc1-c1cccc2c1CCC2 (stereo partly drawn) [Example 156] ; IC50 = < 6 nM

Entry COc1cc2[nH]nc(-c3ccc(C4CCC(O)CC4)nc3)c2nc1-c1cccc2c1CCC2C#N (stereo not drawn) [Example 113] ; IC50 = < 6 nM

Entry COc1cc2[nH]nc(-c3ccc(N4CCS(=N)(=O)CC4)nc3)c2nc1-c1cccc(C)c1C [Example 86] ; IC50 = < 6 nM

* * *

Catalogue of pIC50 values
# system.name: wild-type un-phosphorylated FGFR4 (Homo sapiens, UniProt P22455)
# assay.text: FGFR Enzymatic Assay (FRET peptide phosphorylation), FGFR4
pIC50: −log10 of the molar value.

compound="COC(=O)N1CC(n2cc(-c3n[nH]c4cc(OC)c(-c5cccc6c5CCC6)nc34)cn2)C1 [Example 21]" system_name="wild-type un-phosphorylated FGFR4 (Homo sapiens, UniProt P22455)" assay_readout=pIC50 result="7.00 to 7.40"
compound="COc1cc2[nH]nc(-c3cnn(C)c3)c2nc1-c1cccc2c1CCC2 [Example 2]" system_name="wild-type un-phosphorylated FGFR4 (Homo sapiens, UniProt P22455)" assay_readout=pIC50 result="7.00 to 7.40"
compound="COc1cc2[nH]nc(-c3cnn(C4CN(C(=O)N(C)C)C4)c3)c2nc1-c1cccc(C)c1C [Example 72]" system_name="wild-type un-phosphorylated FGFR4 (Homo sapiens, UniProt P22455)" assay_readout=pIC50 result="7.00 to 7.40"

Entry COc1cc2[nH]nc(-c3cnn(C4CN(C(=O)[C@H](C)O)C4)c3)c2nc1-c1cccc2c1CCC2 [Example 124] ; pIC50 = 7.00 to 7.40

Entry COc1cc2[nH]nc(-c3ccc(N4CCN5C[C@H](O)C[C@H]5C4)nc3)c2nc1-c1cccc(C)c1C [Example 87] ; pIC50 = 7.00 to 7.40

Entry COc1cc2[nH]nc(-c3ccc(N4CCN(C(C)=O)CC4)cc3)c2nc1-c1cccc2c1CCC2 [Example 61] ; pIC50 = < 7.00

Entry COc1cc2[nH]nc(-c3cnn(C4CN(C(=O)[C@@H]5CCN5C)C4)c3)c2nc1-c1cccc2c1CCC2 [Example 119] ; pIC50 = 7.00 to 7.40

Entry COc1cc2[nH]nc(-c3cnn(C4CN(C)C4)c3)c2nc1-c1cccc2c1CCC2 [Example 17] ; pIC50 = < 7.00
